Tested on: DLD1 NRF2-WT
Details: 72 h; CellTiter-Glo viability
QUANTITY_KIND: EC50 viability (µM)

I = CC(C)C[C@H](NC(=O)[C@H](Cc1ccccc1)NC(=O)c1cnccn1)B(O)O [Bortezomib]
II = O=C(Nc1cc(Oc2cc(F)c(NC(=O)C3(C(=O)Nc4ccc(F)cc4)CC3)cc2F)ccn1)C1CC1 [Altiratinib]
III = CCc1cncnc1N1CCN(Cc2nc3cc(C(F)(F)F)ccc3[nH]2)CC1
IV = COCCOc1cnc2ccn([C@H](C)c3nnc4c(F)cc(-c5cnn(C)c5)cn34)c(=O)c2c1 [AMG-337]
V = Cc1cc(Nc2cc(N3CCN(C)CC3)nc(Sc3ccc(NC(=O)C4CC4)cc3)n2)n[nH]1 [Tozasertib]
Lab note: arrange the 5 molecules above from lowest to highest EC50 viability. Form entry: labels listed in requested order.
I, V, IV, III, II
(I: 0.0058 µM, V: 0.155 µM, IV: 0.543 µM, III: 1.51 µM, II: 3.43 µM)

----------
Test system: DLD1 NRF2-WT
Assay: drug sensitivity score (DSS) cytotoxicity (DSS score); higher = more toxic; extreme values may be limits of the assay
Conditions: 72 h; CellTox Green cytotoxicity
QUANTITY_KIND: drug sensitivity score
Quick one: just the number, no unit, thanks!

Form field: reported drug sensitivity score of Cc1nc2cccc(N)c2c(=O)n1C1CCC(=O)NC1=O (stereo unspecified)
0

Form field: reported drug sensitivity score of "O=C(O)CC[C@H]1CC[C@@](c2cc(F)ccc2F)(S(=O)(=O)c2ccc(Cl)cc2)CC1"
0

Form field: reported drug sensitivity score of "Cc1cc2c(C(=O)NC[C@H](C)c3ccccc3)c(O)c(O)cc2c(O)c1-c1c(C)cc2c(C(=O)NC[C@H](C)c3ccccc3)c(O)c(O)cc2c1O"
0

Form field: reported drug sensitivity score of "Cc1ccc(-c2cc(C(F)(F)F)nn2-c2ccc(S(N)(=O)=O)cc2)cc1"
0

Form field: reported drug sensitivity score of "C[C@@H](C(=O)O)c1ccc(-c2ccccc2)c(F)c1"
0

Form field: reported drug sensitivity score of "CC(=O)O[C@@]12CO[C@@H]1C[C@H](O)[C@@]1(C)C(=O)[C@H](O)C3=C(C)[C@@H](OC(=O)[C@H](O)[C@@H](NC(=O)OC(C)(C)C)c4ccccc4)C[C@@](O)([C@@H](OC(=O)c4ccccc4)[C@H]21)C3(C)C"
6.8

----------
Test system: DLD1 NRF2-GOF
Experiment: TC50 cytotoxicity; higher = less toxic
Conditions: 72 h; CellTox Green cytotoxicity
QUANTITY_KIND: TC50 cytotoxicity

Test system DLD1 NRF2-GOF; read-out TC50 cytotoxicity; what value for CNC(=O)c1ccccc1Nc1cc(Nc2ccc(N3CCOCC3)cc2OC)ncc1C(F)(F)F [VS-4718] ?
> 10 µM

Test system DLD1 NRF2-GOF; read-out TC50 cytotoxicity; what value for Cn1ncnc1[C@H]1c2n[nH]c(=O)c3cc(F)cc(c23)N[C@@H]1c1ccc(F)cc1 [Talazoparib] ?
> 1 µM

Test system DLD1 NRF2-GOF; read-out TC50 cytotoxicity; what value for C=CC(=O)N1CCC(Oc2cc3c(Nc4ccc(Cl)c(Cl)c4F)ncnc3cc2OC)CC1 [Poziotinib] ?
> 1 µM

Test system DLD1 NRF2-GOF; read-out TC50 cytotoxicity; what value for C[C@@H](Nc1cc(F)cc(F)c1)c1cc(C(=O)N(C)C)cc2c(=O)cc(N3CCOCC3)oc12 [AZD-8186] ?
> 1 µM

Test system DLD1 NRF2-GOF; read-out TC50 cytotoxicity; what value for CNC(=O)c1cc(Oc2ccc(NC(=O)Nc3ccc(Cl)c(C(F)(F)F)c3)cc2)ccn1 [Sorafenib] ?
> 1 µM

Test system DLD1 NRF2-GOF; read-out TC50 cytotoxicity; what value for CN(CC(=O)N(Cc1ccc(C2CCCCC2)cc1)c1ccc(C(=O)O)cc1)S(=O)(=O)c1c(F)c(F)c(F)c(F)c1F [SH-4-54] ?
> 25 µM

Test system DLD1 NRF2-GOF; read-out TC50 cytotoxicity; what value for Cc1ccc(-c2cc(C(F)(F)F)nn2-c2ccc(S(N)(=O)=O)cc2)cc1 [Celecoxib] ?
> 10 µM

Query compound follows.
Test system DLD1 NRF2-GOF; read-out TC50 cytotoxicity; what value for CN1CCN(c2nc(C3=C(c4c[nH]c5ccccc45)C(=O)NC3=O)c3ccccc3n2)CC1 [Sotrastaurin] ?
> 10 µM
